- Assay text: solvent given as SMILES
- Measurement parameters: in C1CCOC1
Property: emission maximum; scope: individual molecules
Note: unit nm is implicit; provide only the numeric part.

Take a look at these entries with their results.
CCN(CC)c1ccc(-c2nc3c(nc2-c2ccc(B(c4c(C)cc(C)cc4C)c4c(C)cc(C)cc4C)cc2)c2ccccc2n3C)cc1 528
CCC1(CC)c2cc(/C=C/c3cc(C#N)c(/C=C/c4ccc5c(c4)C(CC)(CC)c4cc(N6c7ccccc7Sc7ccccc76)ccc4-5)cc3C#N)ccc2-c2ccc(N3c4ccccc4Sc4ccccc43)cc21 514

Next, consider the following molecule.
Task: State its emission maximum for this molecule: Cc1cc(C)c(-c2cc3c(s2)-c2sc(-c4c(C)cc(C)cc4C)cc2P(c2ccccc2)(c2ccccc2)=[O+][B-]3(c2c(C)cc(C)cc2C)c2c(C)cc(C)cc2C)c(C)c1
Output: 472

----------
- Assay text: solvent given as SMILES
- Measurement parameters: in CO
Property: emission maximum; scope: individual molecules
Note: unit nm is implicit; provide only the numeric part.

Molecule	emission maximum / nm
CC1=N/C(=C\c2ccccc2N)C(=O)N1C	454
Cc1cc(C)c(C)c(-c2ccc3cc(C)c(=O)oc3c2)c1C	394
COC(=O)C(Cc1ccc2oc(-c3ccc(N(C)C)cc3)nc2c1)NC(=O)OC(C)(C)C (stereo not given)	403.5
N#Cc1coc2ccccc2c1=O	415
N#CSC1=CC2=C(c3ccccc3)c3ccc(SC#N)n3[B-](F)(F)[N+]2=C1N1CCOCC1	583
Oc1cc2ccc3cc(O)cc4ccc(c1)c2c34	405
O=C(O)c1ccccc1Nc1ccccc1	390
N#Cc1ccc(/C=C2\OC(=O)c3cc(N)ccc32)cc1	503.52

Next, consider the following molecule.
Task: State its emission maximum for this molecule: C[C@]12C(=O)NC(=O)N([C@H]3CC(O)[C@@H](CO)O3)[C@H]1[C@H]1Oc3cc4oc(=O)ccc4cc3[C@H]12 (stereo not given in full)
Output: 446

----------
Property: emission maximum; scope: individual compounds
- Assay text: solvent given as SMILES
- Measurement parameters: in CS(C)=O
Note: unit nm is implicit; provide only the numeric part.

Task: State its emission maximum for this compound: COc1ccc(C2=C3C(C)=CC(C)=[N+]3[B-](F)(F)n3c(/C=C/c4ccc(N(C)C)cc4)cc(C)c32)cc1
Output: 737

----------
Property: emission maximum; scope: individual compounds
- Assay text: solvent given as SMILES
- Measurement parameters: in O
Units required after the number.

CC[N+]1(CC)CN2C(=N1)C(C(=O)O)=Cc1cc(C)ccc12 469 nm

Task: State its emission maximum for this compound: COc1cc(Br)cc2cc(-c3cc4cc(Br)cc(OC)c4oc3=O)oc12
Output: 497 nm

Task: State its emission maximum for this compound: O=C1/C(=C2\Sc3ccc(S(=O)(=O)O)cc3C2=O)Sc2ccc(S(=O)(=O)O)cc21
Output: 644 nm

----------
Property: emission maximum; scope: individual compounds
- Assay text: solvent given as SMILES
- Measurement parameters: in ClC(Cl)Cl
Note: unit nm is implicit; provide only the numeric part.

Task: State its emission maximum for this compound: COC(=O)c1ccc(-c2ccc(-c3nnc(-c4ccc(-c5nnc(-c6ccc(-c7ccc(C(=O)OC)cc7)s6)o5)cc4)o3)s2)cc1
Output: 397

Task: State its emission maximum for this compound: CC(C)(C)c1ccc(-c2cc3c4c(c2)CCc2cc(-c5ccc(C(C)(C)C)cc5)cc(c2-4)CC3)cc1
Output: 387.93

Task: State its emission maximum for this compound: Cc1cccc(C2=Cc3c4ccccc4cc[n+]3[B-](F)(F)O2)c1
Output: 464.8

----------
- Assay text: solvent given as SMILES
- Measurement parameters: in Cc1ccccc1
Readout type: emission maximum (nm)
Note: unit nm is implicit; provide only the numeric part.

CCCCCCCCC1(CCCCCCCC)c2cc(-c3ccc(C=C4C(=O)c5ccccc5C4=O)cc3)ccc2-c2ccc(-c3ccc(C=C4C(=O)c5ccccc5C4=O)cc3)cc21 486

Task: State its emission maximum for this molecule: CCCCCCC(CCCCCC)N1C(=O)c2cccc3c(-c4cc(OC)c(OC)c(OC)c4)ccc(c23)C1=O
Output: 492.4

Task: State its emission maximum for this molecule: C#CCNC1=C2C=CC=[N+]2[B-](F)(F)n2cccc21
Output: 485

----------
- Assay text: solvent given as SMILES
- Measurement parameters: in CC(C)=O
Readout type: emission maximum (nm)
Note: unit nm is implicit; provide only the numeric part.

CCN(CC)c1ccc(-c2nc3c(nc2-c2ccc(B(c4c(C)cc(C)cc4C)c4c(C)cc(C)cc4C)cc2)c2ccccc2n3C)cc1 544
CCN(CC)c1ccc2cc(-c3ccc(C(F)(F)F)cc3)oc(=O)c2c1 454

Task: State its emission maximum for this compound: C(=C\c1nc2ccccc2[nH]1)/c1ccc(/C=C/c2nc3ccccc3[nH]2)cc1
Output: 427

----------
Property: emission maximum; scope: individual compounds
- Assay text: solvent given as SMILES
- Measurement parameters: in CCCO
Note: unit nm is implicit; provide only the numeric part.

Take a look at these entries with their results.
Cc1ccc(-c2cc(-c3ccccc3)c(C#N)c(=S)[nH]2)cc1 490
N#Cc1ccc(/C=C2\OC(=O)c3cc(N)ccc32)cc1 498.26

Next, consider the following compound.
Task: State its emission maximum for this compound: CCC1(CC)c2cc(B(c3c(C)cc(C)cc3C)c3c(C)cc(C)cc3C)ccc2-c2c1c1c(c3c2C(CC)(CC)c2cc(N(c4ccccc4)c4ccccc4)ccc2-3)C(CC)(CC)c2cc(B(c3c(C)cc(C)cc3C)c3c(C)cc(C)cc3C)ccc2-1
Output: 501

----------
- Assay text: solvent given as SMILES
- Measurement parameters: in CCCCO
Property: emission maximum; scope: individual compounds
Note: unit nm is implicit; provide only the numeric part.

Take a look at these entries with their results.
Compound	Display unit	emission maximum
O=C1Nc2ccccc2/C1=C/C(=O)c1ccc(O)cc1	nm	407
Cc1nc2c(c[n+]1C)CN1C(=O)N([C@H]3O[C@@H](CO)[C@H](O)[C@@H]3O)C=CC1=N2	nm	417
COC(=O)C(Cc1ccc2oc(-c3ccc(N(C)C)cc3)nc2c1)NC(=O)OC(C)(C)C (configuration not stated)	nm	399.5
Oc1ccc(/N=C/c2ccccc2Oc2ccccc2)cc1	nm	419
C#CCN1C(=O)/C(=C/c2cc(OC(C)C)ccc2OC(C)C)N=C1C	nm	516

Task: State its emission maximum for this compound: N#Cc1coc2ccccc2c1=O
Output: 500

Task: State its emission maximum for this compound: C#CCNC1=C2C=CC=[N+]2[B-](F)(F)n2cccc21
Output: 463

----------
- Assay text: solvent given as SMILES
- Measurement parameters: in CCCCCC
Readout type: emission maximum

Take a look at these entries with their results.
Compound	Measured value
c1ccc(-c2cc(-c3ccc4ccc5cccc6ccc3c4c56)ccn2)nc1	385 nm
CCCSc1ccc2n1[B-](F)(F)[N+]1=C(SC#N)C=CC1=C2c1ccccc1	568 nm

Next, consider the following compound.
Task: State its emission maximum for this compound: COC(=O)C(Cc1ccc2oc(-c3ccc(N(C)C)cc3)nc2c1)NC(=O)OC(C)(C)C (stereo not drawn)
Output: 375 nm

----------
- Assay text: solvent given as SMILES
- Measurement parameters: in OCC(F)(F)F
Readout type: emission maximum
Units required after the number.

Take a look at these entries with their results.
Cc1ccc(C2=C3C=C(I)C=[N+]3[B-](F)(F)n3cc(I)cc32)cc1 567.5 nm
C=CCOc1nnc(OCCC(F)(F)C(F)(F)C(F)(F)C(F)(F)C(F)(F)C(F)(F)F)nn1 562 nm

Task: State its emission maximum for this compound: CN(C)c1ccc(/C=C/C=C2\CC/C(=C\C=C\c3ccc(N(C)C)cc3)C2=O)cc1
Output: 764 nm

----------
- Assay text: solvent given as SMILES
- Measurement parameters: in Cc1ccccc1
Property: emission maximum; scope: individual compounds
Note: unit nm is implicit; provide only the numeric part.

Task: State its emission maximum for this compound: c1ccc(-c2nc(-c3ccc(-c4ccc(-n5c6ccccc6c6ccccc65)cc4)cn3)oc2-c2ccccc2)cc1
Output: 404

Task: State its emission maximum for this compound: COc1cccc2cc(-c3cc4cccc(OC)c4oc3=O)oc12
Output: 448

Task: State its emission maximum for this compound: COCCC1=Cc2nc1ccc1[nH]c(cc1CCOC)c1nc(ccc3[nH]c2cc3CCO)C(CCOC)=C1
Output: 643

----------
Property: emission maximum; scope: individual molecules
- Assay text: solvent given as SMILES
- Measurement parameters: in C1CCCCC1
Units required after the number.

Take a look at these entries with their results.
Molecule	emission maximum
COC(=O)c1nc(-c2ccco2)oc1C	302 nm
C[Si](C)(C)[Si](C)(C)c1ccc2cc3ccccc3cc2c1	411 nm
Fc1ccc(-c2cc3c4c(c2)CCc2cc(-c5ccc(F)cc5)cc(c2-4)CC3)cc1	374.66 nm
CCCCCCCCCCCCC(CCCCCCCCCC)Cn1c2cc(C=C(C#N)C#N)c3cccc4c5cccc6c(C=C(C#N)C#N)cc1c(c65)c2c34 (configuration not stated)	603 nm
COc1ccc2c3ccc(OC)cc3n(-c3cc(Cl)c([C](c4c(Cl)cc(Cl)cc4Cl)c4c(Cl)cc(Cl)cc4Cl)c(Cl)c3)c2c1	638 nm
CN(C)c1ccc(C#Cc2ncnc3ccccc23)cc1	444 nm

Next, consider the following molecule.
Task: State its emission maximum for this molecule: Cc1ccc(/C=C/c2ccccc2-[n+]2cc([O-])on2)cc1
Output: 400 nm
